These data points were gathered from patent US9365534B2.

# test system: human CB2 receptor (Homo sapiens (Human), UniProt P34972)
# assay explanation: cell-based
# study conditions: read-out: cAMP Assay CB2 Receptor IC50
pIC50: −log10 of the molar value.
readout kind: pIC50

{"compound": "CCCCCc1cc(OC)c(C2=C[C@H]3CC[C@]2(C(=O)OC)C3(C)C)c(OC)c1", "obs value": 6.50}
{"compound": "CCCCCc1cc(OC)c(C2=C[C@@H]3CC[C@@]2(C(=O)O)C3(C)C)c(OC)c1", "obs value": 5.68}
{"compound": "CCCCCCC(C)(C)c1cc(OC)c(C2=C[C@H]3CC[C@]2(C(=O)O)C3(C)C)c(OC)c1", "obs value": 5.64}
{"compound": "CCCCCCC(C)(C)c1cc(OC)c(C2=C[C@H]3CC[C@]2(CO)C3(C)C)c(OC)c1", "obs value": 6.79}
{"compound": "CCCCCCC(C)(C)c1cc(OC)c(C2=C[C@@H]3CC[C@@]2(CO)C3(C)C)c(OC)c1", "obs value": 6.37}
{"compound": "CCCCCCC(C)(C)c1cc(OC)c(C2C(O)[C@]3(C)CC[C@H]2C3(C)C)c(OC)c1 (stereo partly drawn)", "obs value": 6.03}
{"compound": "CCCCCc1cc(OC)c(C2=C[C@@H]3CC[C@@]2(C(=O)OC)C3(C)C)c(OC)c1", "obs value": 5.82}
{"compound": "CCCCCCC(C)(C)c1cc(OC)c(C2=C[C@@H]3CC[C@@]2(C(=O)O)C3(C)C)c(OC)c1", "obs value": 6.48}
{"compound": "CCCCCc1cc(OC)c(C2=C[C@H]3CC[C@]2(CO)C3(C)C)c(OC)c1", "obs value": 5.94}

* * *

Each entry below lists one item and its recorded pKi value.
# test system: human CB2 receptor (Homo sapiens (Human), UniProt P34972)
# assay explanation: Membrane competition binding assay with [3H]-CP 55,940, CHO-CB2 membranes
pKi: −log10 of the molar value.

{"molecular string": "CCCCCc1cc(OC)c(C2=C[C@H]3CC[C@]2(C(=O)OC)C3(C)C)c(OC)c1", "censoring operator": "=", "pKi": 6.77}
{"molecular string": "CCCCCCC(C)(C)c1cc(OC)c(C2=C[C@H]3CC[C@]2(C(=O)O)C3(C)C)c(OC)c1", "censoring operator": "=", "pKi": 5.82}
{"molecular string": "CCCCCc1cc(OC)c(C2=C[C@H]3CC[C@]2(C(=O)O)C3(C)C)c(OC)c1", "censoring operator": "<", "pKi": 5.00}

* * *

# test system: human CB2 receptor (Homo sapiens (Human))
# assay explanation: cell-based
# study conditions: whole cells expressing CB2, 50 μM forskolin; read-out: cAMP Assay CB2 Receptor IC50

{"compound": "CCCCCCC(C)(C)c1cc(OC)c(C2=C[C@H]3CC[C@]2(C)C3(C)C)c(OC)c1", "IC50": "> 50 µM"}
{"compound": "CCCCCCC(C)(C)c1cc(OC)c(C2=C[C@@]3(C)CC[C@@H]2C3(C)C)c(OC)c1", "IC50": "> 50 µM"}
{"compound": "CCCCCCC(C)(C)c1cc(OC)c(C2=C[C@@H]3CC[C@@]2(C(=O)OC)C3(C)C)c(OC)c1", "IC50": "0.385 µM"}
{"compound": "CCCCCCC(C)(C)c1cc(OC)c(C2C(=O)[C@]3(C)CC[C@H]2C3(C)C)c(OC)c1 (stereo partly drawn)", "IC50": "0.321 µM"}
{"compound": "CCCCCc1cc(OC)c(C2C(=O)[C@]3(C)CC[C@H]2C3(C)C)c(OC)c1 (stereo partly drawn)", "IC50": "> 50 µM"}
{"compound": "CCCCCCC(C)(C)c1cc(OC)c(C2=C[C@]3(C)CC[C@H]2C3(C)C)c(OC)c1", "IC50": "> 50 µM"}
{"compound": "CCCCCc1cc(OC)c(C2C(O)[C@]3(C)CC[C@H]2C3(C)C)c(OC)c1 (stereo partly drawn)", "IC50": "> 50 µM"}
{"compound": "CCCCCCC(C)(C)c1cc(OC)c(C2=C[C@H]3CC[C@]2(C(=O)OC)C3(C)C)c(OC)c1", "IC50": "0.239 µM"}
{"compound": "CCCCCCC(C)(C)c1cc(OC)c(C2=C[C@@H]3CC[C@@]2(C)C3(C)C)c(OC)c1", "IC50": "> 50 µM"}

* * *

# test system: UniProtKB P34972
# assay explanation: Membrane competition binding assay with [3H]-CP 55,940, CHO-CB2 membranes
pKi: −log10 of the molar value.
Each entry below lists one item and its recorded pKi value.
readout kind: pKi

{"compound": "CCCCCCC(C)(C)c1cc(OC)c(C2=C[C@H]3CC[C@]2(CO)C3(C)C)c(OC)c1", "readout kind": "pKi", "obs value": 8.22}
{"compound": "CCCCCc1cc(OC)c(C2=C[C@@H]3CC[C@@]2(C(=O)OC)C3(C)C)c(OC)c1", "readout kind": "pKi", "obs value": 6.15}
{"compound": "CCCCCc1cc(OC)c(C2=C[C@H]3CC[C@]2(CO)C3(C)C)c(OC)c1", "readout kind": "pKi", "obs value": 5.90}
{"compound": "CCCCCCC(C)(C)c1cc(OC)c(C2=C[C@@H]3CC[C@@]2(CO)C3(C)C)c(OC)c1", "readout kind": "pKi", "obs value": 7.25}
{"compound": "CCCCCCC(C)(C)c1cc(OC)c(C2C(O)[C@]3(C)CC[C@H]2C3(C)C)c(OC)c1 (some centres unmarked)", "readout kind": "pKi", "obs value": 6.64}
{"compound": "CCCCCc1cc(OC)c(C2=C[C@@H]3CC[C@@]2(C(=O)O)C3(C)C)c(OC)c1", "readout kind": "pKi", "obs value": 5.94}
{"compound": "CCCCCCC(C)(C)c1cc(OC)c(C2=C[C@@H]3CC[C@@]2(C(=O)O)C3(C)C)c(OC)c1", "readout kind": "pKi", "obs value": 7.09}
{"compound": "CCCCCc1cc(OC)c(C2=C[C@@H]3CC[C@@]2(CO)C3(C)C)c(OC)c1", "readout kind": "pKi", "obs value": 5.19}

* * *

Each entry below lists one item and its recorded Emax value.
# test system: human CB2 receptor (Homo sapiens (Human), UniProt P34972)
# assay explanation: Membrane [35S]GTPγS binding assay
# Type: biochemical
# study conditions: read-out: [35S]GTPγS Emax

{"compound": "CCCCCCC(C)(C)c1cc(OC)c(C2=C[C@@H]3CC[C@@]2(C(=O)OC)C3(C)C)c(OC)c1", "Emax": "94%"}
{"compound": "CCCCCCC(C)(C)c1cc(OC)c([C@@H]2C=C(CO)[C@@H]3C[C@H]2C3(C)C)c(OC)c1 [HU-308, reference compound]", "Emax": "100%"}
{"compound": "CCCCCCC(C)(C)c1cc(OC)c(C2C(O)[C@]3(C)CC[C@H]2C3(C)C)c(OC)c1 (stereo partly drawn)", "Emax": "95%"}

* * *

# test system: human CB2 receptor (Homo sapiens (Human), UniProt P34972)
# assay explanation: Membrane [35S]GTPγS binding assay
# Format: biochemical
# study conditions: human CB2 CHO-K1 membranes, mean (95% confidence interval), n = 5

{"compound": "CCCCCCC(C)(C)c1cc(OC)c(C2C(=O)[C@]3(C)CC[C@H]2C3(C)C)c(OC)c1 (some centres unmarked)", "unit": "nM", "EC50": 185}
{"compound": "CCCCCCC(C)(C)c1cc(OC)c(C2=C[C@@H]3CC[C@@]2(C(=O)OC)C3(C)C)c(OC)c1", "unit": "nM", "EC50": 126}

* * *

Each entry below lists one item and its recorded IC50 value.
# test system: UniProt:P34972
# assay explanation: cell-based

{"molecular string": "CCCCCc1cc(OC)c(C2=C[C@@H]3CC[C@@]2(CO)C3(C)C)c(OC)c1", "IC50": "> 50 µM"}
{"molecular string": "CCCCCc1cc(OC)c(C2=C[C@H]3CC[C@]2(C(=O)O)C3(C)C)c(OC)c1", "IC50": "> 50 µM"}

* * *

# test system: human CB1 receptor (Homo sapiens (Human))
# Sequence (P21554 whole entry): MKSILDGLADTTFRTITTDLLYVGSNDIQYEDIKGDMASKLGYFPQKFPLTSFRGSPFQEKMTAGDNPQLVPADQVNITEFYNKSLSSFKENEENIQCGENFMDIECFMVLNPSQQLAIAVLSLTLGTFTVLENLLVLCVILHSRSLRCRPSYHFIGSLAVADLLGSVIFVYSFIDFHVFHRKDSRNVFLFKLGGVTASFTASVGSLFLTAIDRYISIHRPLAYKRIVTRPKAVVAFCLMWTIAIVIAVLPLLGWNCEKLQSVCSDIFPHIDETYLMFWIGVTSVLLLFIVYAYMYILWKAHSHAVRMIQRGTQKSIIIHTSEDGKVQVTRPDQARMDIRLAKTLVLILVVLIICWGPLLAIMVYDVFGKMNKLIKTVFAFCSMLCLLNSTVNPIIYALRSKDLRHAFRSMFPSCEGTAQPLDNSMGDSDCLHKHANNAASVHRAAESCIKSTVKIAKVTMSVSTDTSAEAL
# assay explanation: cell-based
# study conditions: whole cells expressing CB1, 50 μM forskolin; read-out: cAMP Assay CB1 Receptor IC50

{"compound": "CCCCCCC(C)(C)c1cc(OC)c(C2=C[C@]3(C)CC[C@H]2C3(C)C)c(OC)c1", "IC50": "> 50 µM"}
{"compound": "CCCCCc1cc(OC)c(C2=C[C@H]3CC[C@]2(CO)C3(C)C)c(OC)c1", "IC50": "> 50 µM"}
{"compound": "CCCCCc1cc(OC)c(C2C(O)[C@]3(C)CC[C@H]2C3(C)C)c(OC)c1 (stereo partly drawn)", "IC50": "> 50 µM"}
